Entries and their IC50
Tested on: RS4;11 leukaemia tumour line
Test: In vitro cytotoxicity, Microculture Tetrazolium Assay (MTT)
Assay type: cell-based
Conditions: Homo sapiens; RS4;11 cells, 48 hours exposure
Where a name gives a salt, the structure may show the parent alone.

| molecule | unit-info | IC50 |
| --- | --- | --- |
| COc1cc(-n2cc(C(=O)N(c3ccc(O)cc3)c3ccc(F)cc3)c3ccccc32)c(C(=O)N2Cc3ccccc3C[C@H]2CN2CCN(C)CC2)cc1O [Example 201, dihydrochloride] | nM | 124 |
| COc1cc(-n2cc(C(=O)N(c3ccccc3)c3ccc(O)cc3)c3ccccc32)c(C(=O)N2Cc3ccccc3C[C@H]2CN)cc1O [Example 145] | nM | 1180 |
| CC(C)c1ccc(N(C(=O)c2cn(-c3cc4c(cc3C(=O)N3Cc5ccccc5C[C@H]3CN3CCN(C)CC3)OCO4)c3ccccc23)c2ccc(O)c(Cl)c2)cc1 [Example 64, hydrochloride] | nM | 1360 |
| Cc1cc(C(=O)N(c2ccccc2)c2ccc(O)cc2)cn1-c1cccc(Cl)c1C(=O)N1Cc2ccccc2C[C@H]1CN(C)C [Example 18] | nM | 1130 |
| COc1cc(C(=O)N2Cc3ccccc3C[C@H]2CN2CCN(C)CC2)c(-n2cc(C(=O)N(c3ccccc3)c3ccc(O)cc3)c3ccccc32)cc1Cl [Example 167] | nM | 984 |
| Cc1cc(C(=O)N(c2ccc(O)cc2)c2ccc(F)cc2)cn1-c1cc2c(cc1C(=O)N1Cc3ccccc3C[C@H]1CN1CCN(C)CC1)OCO2 [Example 84] | nM | 146 |

====

Tested on: RS4;11 leukaemia tumour line
Test: In vitro cytotoxicity, Microculture Tetrazolium Assay (MTT)
Format: cell-based
Settings: Homo sapiens; RS4;11 cells, 48 hours exposure
assay-metric: log10 of IC50 (log10 of the value in nM)

| compound | tested-system | log10 of IC50 |
| --- | --- | --- |
| Cc1cc(C(=O)N(c2ccccc2)c2ccc(O)cc2)cn1-c1cc(F)c(F)cc1C(=O)N1Cc2ccccc2C[C@H]1CN1CCN(C)CC1 | RS4;11 leukaemia tumour line | 2.95 |
| COc1cc(-n2cc(C(=O)N(c3ccccc3)c3ccc4[nH]ccc4c3)c3ccccc32)c(C(=O)N2Cc3ccccc3C[C@H]2CN2CCN(C)CC2)cc1O | RS4;11 leukaemia tumour line | 2.79 |
| Cc1cc(C(=O)N(c2ccccc2)c2ccc(O)cc2)cn1-c1cc(Br)c(Br)cc1C(=O)N1Cc2ccccc2C[C@H]1CN1CCN(C)CC1 | RS4;11 leukaemia tumour line | 2.82 |
| Cc1cc(C(=O)N(c2ccc(O)cc2)c2ccc(Cl)cc2)cn1-c1cc2c(cc1C(=O)N1Cc3ccccc3C[C@H]1CN1CCN(C)CC1)OCO2 | RS4;11 leukaemia tumour line | 2.11 |
| CN1CCN(C[C@@H]2Cc3ccccc3CN2C(=O)c2ccc(Cl)cc2-n2cc(C(=O)N(c3ccc(O)cc3)c3ccc4[nH]ccc4c3)c3ccccc32)CC1 | RS4;11 leukaemia tumour line | 1.64 |
| CN1CCN(C[C@@H]2Cc3ccccc3CN2C(=O)c2cc3c(cc2-n2cc(C(=O)N(c4ccc(O)cc4)c4ccc5[nH]ccc5c4)c4cc(Cl)ccc42)OCO3)CC1 | RS4;11 leukaemia tumour line | 2.73 |

====

Target: Bcl-2 protein (histag-Bcl-2, UniProtKB P10415) (Homo sapiens (Human), UniProt P10415)
Sequence (P10415 whole entry): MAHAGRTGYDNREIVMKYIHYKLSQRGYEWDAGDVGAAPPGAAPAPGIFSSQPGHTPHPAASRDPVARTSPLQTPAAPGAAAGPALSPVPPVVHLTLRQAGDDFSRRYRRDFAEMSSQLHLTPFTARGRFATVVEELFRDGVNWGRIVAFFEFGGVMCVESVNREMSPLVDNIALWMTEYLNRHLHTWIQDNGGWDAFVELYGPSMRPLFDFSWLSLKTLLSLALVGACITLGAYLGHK
Test: Inhibition of Bcl-2 by the fluorescence polarisation technique
Format: binding
Conditions: fluorescence polarisation test; method A, or method B where underlined (underlining not visible); read-out: IC50 (nM) Bcl-2 FP
Text: Inhibition of Bcl-2 by the fluorescence polarisation technique
Structures can show the parent of a compound that is named as a salt.
IC50 under 20 nM gets y, anything at or over 20 nM gets n.

| molecule | tested-system | class-name |
| --- | --- | --- |
| CC(=O)Oc1ccc(N(C(=O)c2cn(-c3cc4c(cc3C(=O)N3Cc5ccccc5C[C@H]3CN3CCN(C)CC3)OCO4)c3ccccc23)c2ccc(C)cc2)cc1 | Bcl-2 protein (histag-Bcl-2, UniProtKB P10415) (Homo sapiens (Human), UniProt P10415) | n |
| CNc1ccc(-n2nc(C(=O)N(c3ccccc3)c3ccccc3)c3ccccc32)c(C(=O)N2Cc3ccccc3C[C@H]2CN)c1 | Bcl-2 protein (histag-Bcl-2, UniProtKB P10415) (Homo sapiens (Human), UniProt P10415) | n |
| CN1CCN(C[C@@H]2Cc3ccccc3CN2C(=O)c2ccc(Cl)cc2-n2cc(C(=O)N(c3ccc(O)cc3)c3ccc(Cl)cc3)c3ccccc32)CC1 | Bcl-2 protein (histag-Bcl-2, UniProtKB P10415) (Homo sapiens (Human), UniProt P10415) | y |
| Cc1ccc(N(C(=O)c2cc(C)n(-c3cc(Br)ccc3C(=O)N3Cc4ccccc4C[C@H]3CN3CCN(C)CC3)c2)c2ccc(O)cc2)cc1 | Bcl-2 protein (histag-Bcl-2, UniProtKB P10415) (Homo sapiens (Human), UniProt P10415) | y |
| CN1CCN(C[C@@H]2Cc3ccccc3CN2C(=O)c2cc3c(cc2-n2cc(C(=O)N(c4ccccc4)c4ccc(O)c(F)c4)c4ccccc42)OCO3)CC1 | Bcl-2 protein (histag-Bcl-2, UniProtKB P10415) (Homo sapiens (Human), UniProt P10415) | y |
| Cc1cc(C(=O)N(c2ccc(O)cc2)c2ccc3c(ccn3C)c2)cn1-c1cc2c(cc1C(=O)N1Cc3ccccc3C[C@H]1CN1CCN(C)CC1)OCO2 | Bcl-2 protein (histag-Bcl-2, UniProtKB P10415) (Homo sapiens (Human), UniProt P10415) | y |
| Cc1cc(C(=O)N(c2ccc(O)cc2)c2ccc3[nH]ccc3c2)cn1-c1cc(Cl)cc(Cl)c1C(=O)N1Cc2ccccc2C[C@H]1CN1CCN(C)CC1 | Bcl-2 protein (histag-Bcl-2, UniProtKB P10415) (Homo sapiens (Human), UniProt P10415) | y |
| Cc1ccc(N(C(=O)c2cc(C)n(-c3cc(Cl)ccc3C(=O)N3Cc4ccccc4C[C@H]3CN3CCN(C)CC3)c2)c2ccc(O)cc2)cc1 | Bcl-2 protein (histag-Bcl-2, UniProtKB P10415) (Homo sapiens (Human), UniProt P10415) | y |
| CN1CCN(C[C@@H]2Cc3ccccc3CN2C(=O)c2cc3c(cc2-n2cc(C(=O)N(c4ccccc4)c4ccccc4)c4ccccc42)OCO3)CC1 [Example 177, dihydrochloride] | Bcl-2 protein (histag-Bcl-2, UniProtKB P10415) (Homo sapiens (Human), UniProt P10415) | y |
| Cc1cc(C(=O)N(c2ccccc2)c2ccc(O)cc2)cn1-c1cc(F)c(F)cc1C(=O)N1Cc2ccccc2C[C@H]1CN1CCN(C)CC1 | Bcl-2 protein (histag-Bcl-2, UniProtKB P10415) (Homo sapiens (Human), UniProt P10415) | n |
| NC[C@@H]1Cc2ccccc2CN1C(=O)c1cc(NC(=O)CSc2ccccc2)ccc1-n1cc(C(=O)N(c2ccccc2)c2ccc(O)cc2)c2ccccc21 | Bcl-2 protein (histag-Bcl-2, UniProtKB P10415) (Homo sapiens (Human), UniProt P10415) | y |
